Protocol Summary: Clearance assay: mouse intravenous (IV) clearance
Format: in vivo
Condition Label: female BALB/c mice, single IV dose of 1 mg/kg; clearance as % of mouse liver blood flow
Assay Endpoint: IV Mouse CL, % of liver blood flow

Molecule: CN(CC(C)(F)F)C1CCN(C(=O)Cn2cc(NC(=O)c3cnn4cccnc34)c(-c3cc(Cl)ccc3OC(F)F)n2)CC1 [Example 134]
Assay Endpoint: IV Mouse CL, % of liver blood flow
Reported Value: >100%

Molecule: CCN1CCN(C(=O)Cn2cc(NC(=O)c3cnn4cccnc34)c(-c3cc(Cl)ccc3OC(F)F)n2)CC1 [Example 233]
Assay Endpoint: IV Mouse CL, % of liver blood flow
Reported Value: >100%

Molecule: CN1CCN(c2nc(-c3cc(Cl)ccc3OC(F)F)c(NC(=O)c3cnn4cccnc34)s2)CC1 [Example 205]
Assay Endpoint: IV Mouse CL, % of liver blood flow
Reported Value: 51%

Molecule: CCOC(=O)CN1CCN(C(=O)Cn2cc(NC(=O)c3cnn4cccnc34)c(-c3cc(Cl)ccc3OC(F)F)n2)CC1 [Example 397]
Assay Endpoint: IV Mouse CL, % of liver blood flow
Reported Value: >100%

Molecule: CN(CC(F)(F)c1ccccc1)C1CCN(C(=O)Cn2cc(NC(=O)c3cnn4cccnc34)c(-c3cc(Cl)ccc3OC(F)F)n2)CC1 [Example 102]
Assay Endpoint: IV Mouse CL, % of liver blood flow
Reported Value: >100%

Molecule: O=C(Nc1cn(CCNCc2ccccc2)nc1-c1cc(Cl)ccc1OC(F)F)c1cnn2cccnc12 [Example 313]
Assay Endpoint: IV Mouse CL, % of liver blood flow
Reported Value: 57%

Molecule: CN(Cc1ccccc1)C1CCN(C(=O)Cn2cc(NC(=O)c3cnn4cccnc34)c(-c3cc(Cl)ccc3OC(F)F)n2)CC1 [Example 98]
Assay Endpoint: IV Mouse CL, % of liver blood flow
Reported Value: >100%
